Target: T1, human TL1A extracellular domain with N-terminal HIS and FLAG tag (human, UniProt O95150 72-251)
T1 construct: whole entry named. ~70 kDa fraction purified by gel filtration
T1 sequence: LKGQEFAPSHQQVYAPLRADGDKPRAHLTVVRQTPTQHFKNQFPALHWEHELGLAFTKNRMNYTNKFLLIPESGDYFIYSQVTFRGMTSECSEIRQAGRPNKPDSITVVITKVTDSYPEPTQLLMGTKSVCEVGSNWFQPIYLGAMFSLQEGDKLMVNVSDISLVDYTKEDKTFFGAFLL
Experiment: SPR run 2; supernatant on Protein A; TL1A 10 ug/mL; timepoint 44
Rule: TL1A Binding Level (Early) under 200 RU gives class 0, otherwise class 1.

>  <binder>
320-212 (antibody, human IgG1, name in Kabat numbering, V domains shown, human IgG1, lambda) VH: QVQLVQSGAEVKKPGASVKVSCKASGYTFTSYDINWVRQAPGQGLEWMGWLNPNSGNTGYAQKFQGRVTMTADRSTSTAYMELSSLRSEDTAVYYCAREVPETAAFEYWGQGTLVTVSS VL: QSVLTQPPSVSGAPGQRVTISCTSHSSDIGAGLGVHWYQQLPGTAPKLLIEGYYNRPSGVPDRFSGSKSGTSASLTITGLLPEDEGDYYCQSYDGTLSALFGGGTKLTVLG

>  <classification>
class 1

$$$$
>  <binder>
320-201 (antibody, human IgG1, name in Kabat numbering, V domains shown, human IgG1, lambda) VH: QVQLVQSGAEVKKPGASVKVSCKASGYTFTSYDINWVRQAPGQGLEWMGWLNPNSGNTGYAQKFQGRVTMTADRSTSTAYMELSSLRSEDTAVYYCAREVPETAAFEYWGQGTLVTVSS VL: QSVLTQPPSVSGAPGQRVTISCTASSSDIGAGLGVHWYQQLPGTAPKLLIEGYYNRPSGVPDRFSGSKSGTSASLTITGLLPEDEGDYYCQSYDGTLSALFGGGTKLTVLG

>  <classification>
class 1

$$$$
>  <binder>
320-197 (antibody, human IgG1, name in Kabat numbering, V domains shown, human IgG1, lambda) VH: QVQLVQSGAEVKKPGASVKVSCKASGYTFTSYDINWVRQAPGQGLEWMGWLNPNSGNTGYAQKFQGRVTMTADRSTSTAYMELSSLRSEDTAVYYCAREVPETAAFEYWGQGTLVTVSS VL: QSVLTQPPSVSGAPGQRVTISCKSSSSDIGAGLGVHWYQQLPGTAPKLLIEGYYNRPSGVPDRFSGSKSGTSASLTITGLLPEDEGDYYCQSYDGTLSALFGGGTKLTVLG

>  <classification>
class 1

$$$$
>  <binder>
320-209 (antibody, human IgG1, name in Kabat numbering, V domains shown, human IgG1, lambda) VH: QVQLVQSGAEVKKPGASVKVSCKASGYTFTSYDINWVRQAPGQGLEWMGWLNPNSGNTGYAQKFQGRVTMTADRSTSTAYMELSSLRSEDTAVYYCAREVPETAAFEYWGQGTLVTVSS VL: QSVLTQPPSVSGAPGQRVTISCTSASSDIGAGLGVHWYQQLPGTAPKLLIEGYYNRPSGVPDRFSGSKSGTSASLTITGLLPEDEGDYYCQSYDGTLSALFGGGTKLTVLG

>  <classification>
class 1

$$$$
>  <binder>
320-251 (antibody, human IgG1, name in Kabat numbering, V domains shown, human IgG1, lambda) VH: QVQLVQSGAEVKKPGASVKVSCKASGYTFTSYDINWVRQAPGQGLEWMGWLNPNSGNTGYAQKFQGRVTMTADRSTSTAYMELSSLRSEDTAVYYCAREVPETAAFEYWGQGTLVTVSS VL: QSVLTQPPSVSGAPGQRVTISCTSSSSDISAGLGVHWYQQLPGTAPKLLIEGYYNRPSGVPDRFSGSKSGTSASLTITGLLPEDEGDYYCQSYDGTLSALFGGGTKLTVLG

>  <classification>
class 0

$$$$
>  <binder>
320-215 (antibody, human IgG1, name in Kabat numbering, V domains shown, human IgG1, lambda) VH: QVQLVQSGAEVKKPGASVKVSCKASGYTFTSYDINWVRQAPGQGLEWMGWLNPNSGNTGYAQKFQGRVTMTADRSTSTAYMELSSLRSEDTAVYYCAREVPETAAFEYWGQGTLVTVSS VL: QSVLTQPPSVSGAPGQRVTISCTSWSSDIGAGLGVHWYQQLPGTAPKLLIEGYYNRPSGVPDRFSGSKSGTSASLTITGLLPEDEGDYYCQSYDGTLSALFGGGTKLTVLG

>  <classification>
class 1

$$$$
>  <binder>
320-243 (antibody, human IgG1, name in Kabat numbering, V domains shown, human IgG1, lambda) VH: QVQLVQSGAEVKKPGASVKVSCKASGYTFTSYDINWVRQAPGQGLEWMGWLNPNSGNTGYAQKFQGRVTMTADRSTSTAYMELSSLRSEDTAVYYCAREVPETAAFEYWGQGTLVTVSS VL: QSVLTQPPSVSGAPGQRVTISCTSSSSDQGAGLGVHWYQQLPGTAPKLLIEGYYNRPSGVPDRFSGSKSGTSASLTITGLLPEDEGDYYCQSYDGTLSALFGGGTKLTVLG

>  <classification>
class 0

$$$$
>  <binder>
320-238 (antibody, human IgG1, name in Kabat numbering, V domains shown, human IgG1, lambda) VH: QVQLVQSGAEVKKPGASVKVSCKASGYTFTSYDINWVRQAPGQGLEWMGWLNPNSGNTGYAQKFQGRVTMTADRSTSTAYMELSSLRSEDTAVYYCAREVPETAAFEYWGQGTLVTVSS VL: QSVLTQPPSVSGAPGQRVTISCTSSSSLIGAGLGVHWYQQLPGTAPKLLIEGYYNRPSGVPDRFSGSKSGTSASLTITGLLPEDEGDYYCQSYDGTLSALFGGGTKLTVLG

>  <classification>
class 1

$$$$
>  <binder>
320-208 (antibody, human IgG1, name in Kabat numbering, V domains shown, human IgG1, lambda) VH: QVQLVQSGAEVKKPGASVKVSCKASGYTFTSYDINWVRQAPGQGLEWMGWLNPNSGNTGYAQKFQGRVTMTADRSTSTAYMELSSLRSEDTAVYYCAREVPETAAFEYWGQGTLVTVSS VL: QSVLTQPPSVSGAPGQRVTISCTYSSSDIGAGLGVHWYQQLPGTAPKLLIEGYYNRPSGVPDRFSGSKSGTSASLTITGLLPEDEGDYYCQSYDGTLSALFGGGTKLTVLG

>  <classification>
class 1

$$$$
>  <binder>
320-239 (antibody, human IgG1, name in Kabat numbering, V domains shown, human IgG1, lambda) VH: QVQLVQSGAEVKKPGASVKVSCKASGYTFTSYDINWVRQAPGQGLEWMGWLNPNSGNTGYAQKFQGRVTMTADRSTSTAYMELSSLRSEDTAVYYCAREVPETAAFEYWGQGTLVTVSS VL: QSVLTQPPSVSGAPGQRVTISCTSSSSWIGAGLGVHWYQQLPGTAPKLLIEGYYNRPSGVPDRFSGSKSGTSASLTITGLLPEDEGDYYCQSYDGTLSALFGGGTKLTVLG

>  <classification>
class 1

$$$$
